assay: Stability of linkers L1-L4 conjugated to FGF21 (LC-MS); type: physicochemical; conditions: +4° C., 336 hrs
Assay Metric: +(1) H2O
Enter the number, and then the unit.

Molecule	Reported Value
L1-FGF21ΔH-A129C: Linker-1 conjugated to FGF21ΔH-A129C protein (Table 4; Table 5 row L1) (conjugate, UniProt Q9NSA1 29-209, looked up, variant H1* A129C, Linker-1 attached) Fibroblast growth factor 21: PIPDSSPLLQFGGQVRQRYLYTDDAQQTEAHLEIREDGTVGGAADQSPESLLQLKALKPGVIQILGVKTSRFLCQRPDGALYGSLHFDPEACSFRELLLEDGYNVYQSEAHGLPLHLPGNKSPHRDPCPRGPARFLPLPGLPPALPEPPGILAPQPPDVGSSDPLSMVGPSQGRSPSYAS	41%
L3-FGF21ΔH-A129C: Linker-3 conjugated to FGF21ΔH-A129C protein (Table 4; Table 5 row L3) (conjugate, UniProt Q9NSA1 29-209, looked up, variant H1* A129C, Linker-3 attached) Fibroblast growth factor 21: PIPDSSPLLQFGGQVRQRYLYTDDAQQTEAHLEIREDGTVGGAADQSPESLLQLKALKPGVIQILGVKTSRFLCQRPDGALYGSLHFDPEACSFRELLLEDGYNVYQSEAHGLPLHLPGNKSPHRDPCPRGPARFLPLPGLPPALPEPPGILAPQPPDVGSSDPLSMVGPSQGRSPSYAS	29%
L2-FGF21ΔH-A129C: Linker-2 conjugated to FGF21ΔH-A129C protein (Table 4; Table 5 row L2) (conjugate, UniProt Q9NSA1 29-209, looked up, variant H1* A129C, Linker-2 attached) Fibroblast growth factor 21: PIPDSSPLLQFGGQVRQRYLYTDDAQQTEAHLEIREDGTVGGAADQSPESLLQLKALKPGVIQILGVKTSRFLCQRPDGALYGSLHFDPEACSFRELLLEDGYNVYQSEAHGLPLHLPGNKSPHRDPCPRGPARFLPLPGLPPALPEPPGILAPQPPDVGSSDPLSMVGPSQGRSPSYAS	28%

(Q) What does the data say about its +(1) H2O? Entry: L4-FGF21ΔH-A129C: Linker-4 conjugated to FGF21ΔH-A129C protein (Table 4; Table 5 row L4) (conjugate, UniProt Q9NSA1 29-209, looked up, variant H1* A129C, Linker-4 attached) Fibroblast growth factor 21: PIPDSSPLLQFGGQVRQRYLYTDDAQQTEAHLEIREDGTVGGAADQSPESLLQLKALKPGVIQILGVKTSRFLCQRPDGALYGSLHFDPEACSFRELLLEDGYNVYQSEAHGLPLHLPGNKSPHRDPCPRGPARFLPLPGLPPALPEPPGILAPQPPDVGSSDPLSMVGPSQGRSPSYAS
(A) 31%

Source listed as patent US8722622B2.
